- Test system: MDA-N
- assay.remarks: NCI tumour cell line growth inhibition, 48 h
Activity calls are given as the source filed them. Rule as the data show it: active = GI50 up to about 1.1 µM and inactive = higher.

# molecule, tested.on, GI50
rows = [
    ("CC1CN=C(Nc2ccc(S(N)(=O)=O)cc2)S1 (stereo not given)", "MDA-N", "> 10 µM (inactive)"),
    ("NC(=O)N/N=C\\CC(O)(C(F)(F)Cl)C(F)(F)Cl", "MDA-N", "> 10 µM (inactive)"),
    ("CC(C)OC(=O)c1ccc(NCC2=CC(=O)C=CC2=O)cc1", "MDA-N", "15.1 µM (inactive)"),
    ("CCOc1ccc(Nc2nc(N)nc(N)c2N)cc1", "MDA-N", "3.79 µM (inactive)"),
    ("COCOc1c(C(OCOC)c2cnc(Sc3ccccc3)n2C)ccc(OC)c1OC (stereo not given)", "MDA-N", "> 100 µM (inactive)"),
    ("CC(=O)O[C@H]1CC[C@@]2(C)C(=CC[C@H]3[C@@H]4C[C@H](N5CCOCC5)[C@H](OC(C)=O)[C@@]4(C)CC[C@@H]32)C1", "MDA-N", "> 100 µM (inactive)"),
    ("CCc1nc(N)nc(N)c1-c1ccc(N2CCOCC2)c(N=[N+]=[N-])c1", "MDA-N", "57.1 µM (inactive)"),
    ("CN(/N=C(\\C(=O)O)c1ccccc1)C1=NCCN1", "MDA-N", "> 100 µM (inactive)"),
    ("O=c1n(CCCN2CCOCC2)nc2n1-c1ccc3ccccc3c1SC2", "MDA-N", "6.17 µM (inactive)"),
    ("COC(=O)[C@H]1C=C[C@H](OC2OC(COC(C)=O)C(OC(C)=O)C(OC(C)=O)C2OC(C)=O)n2c(=O)n(-c3ccccc3)c(=O)n21 (stereo not given in full)", "MDA-N", "4.68 µM (inactive)"),
]

---

Item-by-item account of GI50
- System: MCF7
- assay.remarks: NCI tumour cell line growth inhibition, 48 h
Active and inactive are the calls of the source. Cut-off read from the data, not from the text of the source: active = GI50 up to about 1.1 µM and inactive = higher.
measured.quantity: GI50

# compound, readout.value
records = [
    ("CC1(CCCO)CCCCCC(C)(CCCO)C1=O (configuration not stated)", "70.6 µM (inactive)"),
    ("N#CC1=CNc2sccc2S1(=O)=O", "> 100 µM (inactive)"),
    ("COc1ccccc1N1C(=O)CS(=O)(=O)C1c1cccc(Oc2ccccc2)c1 (configuration not stated)", "6.21 µM (inactive)"),
    ("N#Cc1nc(/C=C/c2nc(C#N)c(N)o2)oc1N", "> 10 µM (inactive)"),
    ("COCOc1c(C(OCOC)c2cnc(Sc3ccccc3)n2C)ccc(OC)c1OC (configuration not stated)", "> 100 µM (inactive)"),
    ("COc1c(C)c(OCC=C(C)C)cc(CO)c1CO", "38.5 µM (inactive)"),
    ("O=C1/C(=C\\c2ccccc2)C(NC2CCCCC2)c2ccccc21 (configuration not stated)", "1.37 µM (inactive)"),
    ("COc1ccc(C)cc1Nc1nnc(-c2ccc(N)cc2)s1", "46.3 µM (inactive)"),
    ("CCN(CC)CCn1c2cc3c(cc2c(=O)c2cccnc21)OCCO3", "7.82 µM (inactive)"),
    ("NCCCCc1cc(O)c2c(c1O)C(=O)c1ccccc1C2=O", "5.41 µM (inactive)"),
    ("C=CCSSCC=C", "30.3 µM (inactive)"),
    ("CCOC(=O)NCC(=O)NCC(=O)NCC(N)=O", "> 100 µM (inactive)"),
]

Hello, the source for this data is ChEMBL document CHEMBL1201862, in case you need it.
